Here, each record is paired with measured IC50 data.
- targetOfAssay: HSP90a protein (Homo sapiens)
- Construct: purchased BPS Bioscience 50298
- protocolText: HSP90α-binding fluorescent polarization (FP) assay, BODIPY-labeled RNK04010 probe
- conditionDetails: FP competition with RNK04010 (BODIPY-labeled), 5 nM, 300 min at 25° C.

In the examples that follow, each entry is paired with its recorded IC50.
C=C(F)C(=O)N1CCN(c2nc(OC[C@@H]3CCCN3CCCOCCC(=O)NCc3ccc(-n4c(O)nnc4-c4cc(CC)c(O)cc4O)cc3)nc3c2CCN(c2cccc4cccc(Cl)c24)C3)C[C@@H]1CC#N [Compound 161]	100 to 1000 nM
C=CC(=O)N1CCN(c2nc(OC[C@@H]3CC[C@H](C(=O)N4CCN(C(=O)C5CCN(Cc6ccc(-n7c(C(=O)NCC(F)(F)F)nnc7-c7cc(C(C)C)c(O)cc7O)cc6)CC5)CC4)N3C)nc3c2CCN(c2cccc4cccc(Cl)c24)C3)C[C@@H]1CC#N [Compound 304]	< 100 nM
CCc1cc(-c2nnc(C(N)=O)n2-c2ccc(CN3CCN(CC4CCN(C(=O)CCNc5nc6c(c(N7CCN(C(C)=O)CC7)n5)CCN(c5cc(O)cc7ccccc57)C6)CC4)CC3)cc2)c(O)cc1O [Compound 69, trifluoroacetic acid]	< 100 nM
C=CC(=O)N1CCN(c2nc(OC[C@@H]3CC[C@H](C(=O)N4CCN(Cc5ccc(-n6c(O)nnc6-c6cc(C(C)C)c(O)cc6O)cc5)CC4)N3C)nc3c2CCN(c2cccc4cccc(Cl)c24)C3)C[C@@H]1CC#N [Compound 324]	< 100 nM
C=CC(=O)N1CCN(c2nc(OC[C@@H]3C[C@@H](NC(=O)C4CCN(Cc5ccc(-n6c(C(=O)NCCN(CC)CC)nnc6-c6cc(C(C)C)c(O)cc6O)cc5)CC4)CN3C)nc3c2CCN(c2cccc4cccc(Cl)c24)C3)C[C@@H]1CC#N [Compound 204]	< 100 nM
C=CC(=O)N1CCN(c2nc(OC[C@@H]3CN(C(=O)C4CCN(Cc5ccc(-n6c(O)nnc6-c6cc(C(C)C)c(O)cc6O)cc5)CC4)CCN3C)nc3c2CCN(c2cccc4cccc(Cl)c24)C3)C[C@@H]1CC#N [Compound 202, trifluoroacetic acid]	< 100 nM

Task: Returns the measured IC50 for the input molecule. Input: C=CC(=O)N1CCN(c2nc(OC[C@@H]3CCN(C(=O)c4cc(CC)c(O)cc4O)C3)nc3c2CCN(c2cccc4cccc(Cl)c24)C3)C[C@@H]1CC#N [Compound 158]
Result: > 1000 nM

Task: Next record, please: C=CC(=O)N1CCN(c2nc(NCCC(=O)N3CCC(Cc4ccc(CN(C)Cc5ccc(-n6c(C(=O)NCC(F)(F)F)nnc6-c6cc(C(C)C)c(O)cc6O)cc5)cc4)CC3)nc3c2CCN(c2cccc4ccccc24)C3)C[C@H]1CC#N [Compound 110, trifluoroacetic acid]
Result: > 1000 nM

Task: Note, next up: C=CC(=O)N1CCN(c2nc(OC[C@@H]3CC[C@H](C(=O)N4CCN(Cc5cc(C(C)C)c(O)cc5O)CC4)N3C)nc3c2CCN(c2cccc4cccc(Cl)c24)C3)C[C@@H]1CC#N [Compound 329]
Result: < 100 nM

----------
- targetOfAssay: KRAS(G12C) (Homo sapiens, UniProt P01116, G12C)
- Sequence (P01116 1-188 isoform P01116-2 G12C): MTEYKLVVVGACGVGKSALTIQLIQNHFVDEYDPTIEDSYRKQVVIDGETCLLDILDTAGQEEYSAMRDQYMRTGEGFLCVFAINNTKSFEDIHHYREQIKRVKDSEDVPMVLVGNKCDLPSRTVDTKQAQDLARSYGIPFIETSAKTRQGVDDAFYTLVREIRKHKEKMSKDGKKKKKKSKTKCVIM
- protocolText: KRAS(G12C)/SOS1 homogeneous time-resolved fluorescence (HTRF) assay
- conditionDetails: absence of GTP, 4° C. for 3 hr, read-out: KRAS (G12C) binding
Entries and their IC50

Task: Fill blank: measured IC50 of the compound C=CC(=O)N1CCN(c2nc(OC[C@@H]3C[C@H](N4CCN(Cc5ccc(-n6c(C(=O)NCC)nnc6-c6cc(C(C)C)c(O)cc6O)cc5)CC4)CN3C)nc3c2CCN(c2cccc4cccc(C)c24)C3)C[C@@H]1CC#N is ____.
Result: < 100 nM

Task: Also C=CC(=O)N1CCN(c2nc(OC[C@@H]3C[C@@H](N(C)C(=O)C4CCN(Cc5ccc(-n6c(C(=O)NCC(F)(F)F)nnc6-c6cc(C(C)C)c(O)cc6O)cc5)CC4)CN3C)nc3c2CCN(c2cccc4cccc(Cl)c24)C3)C[C@@H]1CC#N ?
Result: 100 to 1000 nM

----------
- System: NCI-H358 human non-small cell lung cancer
- protocolText: NCI-H358 CCK-8 proliferation assay
- Assay type: cell-based
- conditionDetails: NCI-H358 cells, 72 hr
readout: EC50

Sample answers from the record:
C=CC(=O)N1CCN(c2nc(NCCC(=O)NCCOCCOCCOc3ccc(-n4c(O)nnc4-c4cc(C(C)C)c(O)cc4O)cc3)nc3c2CCN(c2cccc4cccc(Cl)c24)C3)C[C@@H]1CC#N	> 1 µM
CCC(=O)N1CCN(c2nc(N3CCC(CN4CCN(Cc5ccc(-n6c(O)nnc6-c6cc(C(C)C)c(O)cc6O)cc5)CC4)CC3)nc3c2CCN(c2cccc4cccc(Cl)c24)C3)C[C@@H]1CC#N	0.1 to 1 µM
CCC(=O)N1CCN(c2nc(NCCC(=O)NCc3ccc(-n4c(O)nnc4-c4cc(CC)c(O)cc4O)cc3)nc3c2CCN(c2cc(O)cc4ccccc24)C3)CC1	> 1 µM

Shifting focus to the molecule that follows.
Task: // query EC50 value for entry C=CC(=O)N1CCN(c2nc(NCCC(=O)N3CCC(CN4CCN(Cc5ccc(-n6c(O)nnc6-c6cc(C(C)C)c(O)cc6O)cc5)CC4)CC3)nc3c2CCN(c2cc(O)cc4ccccc24)C3)CC1
Result: 0.1 to 1 µM

----------
- Tested on: NCI-H358 human non-small cell lung cancer
- protocolText: NCI-H358 CCK-8 proliferation assay
- Assay type: cell-based
- conditionDetails: NCI-H358 cells, 72 hr
pEC50: −log10 of the molar value.
readout: pEC50

Sample answers from the record:
C=CC(=O)N1CCN(c2nc(NCCC(=O)NCc3ccc(-n4c(O)nnc4-c4ccc(O)cc4O)cc3)nc3c2CCN(c2cc(O)cc4ccccc24)C3)CC1	< 6.00
C=CC(=O)N1CCN(c2nc(NCCC(=O)NCCOCCOCCOc3ccc(-n4c(O)nnc4-c4cc(CC)c(O)cc4O)cc3)nc3c2CCN(c2cc(O)cc4ccccc24)C3)CC1	< 6.00

Task: Look at this compound and give its reported pEC50. CCC(=O)N1CCN(c2nc(NCCC(=O)NCCOc3ccc(-n4c(O)nnc4-c4cc(C(C)C)c(O)cc4O)cc3)nc3c2CCN(c2cc(O)cc4ccccc24)C3)CC1
Result: < 6.00

Task: Moving on to CC(C)c1cc(-c2nnc(O)n2-c2ccc(CN3CCN(C4CCN(c5nc6c(c(N7CCN(C(=O)C(F)(F)F)[C@@H](CC#N)C7)n5)CCN(c5cccc7cccc(Cl)c57)C6)CC4)CC3)cc2)c(O)cc1O
Result: 6.00 to 7.00

Task: Check C=CC(=O)N1CCN(c2nc(NCCC(=O)N3CCC(CN4CCN(Cc5ccc(-n6c(C(=O)NCC(F)(F)F)nnc6-c6cc(C)c(O)cc6O)cc5)CC4)CC3)nc3c2CCN(c2cccc4ccccc24)C3)C[C@H]1CC#N too.
Result: 6.00 to 7.00

----------
- Tested on: NCI-H358 human non-small cell lung cancer
- protocolText: NCI-H358 CCK-8 proliferation assay
- Format: cell-based
- conditionDetails: NCI-H358 cells, 72 hr
pEC50: −log10 of the molar value.
pEC50 values, listed per item

Solved cases (3 shown):
C=CC(=O)N1CCN(c2nc(NCCC(=O)N3CCC(CN4CCC(Cc5ccc(-n6c(O)nnc6-c6cc(C(C)C)c(O)cc6O)cc5)CC4)CC3)nc3c2CCN(c2cc(O)cc4ccccc24)C3)CC1	< 6.00
CCC(=O)N1CCN(c2nc(NCCC(=O)NCc3ccc(-n4c(O)nnc4-c4cc(C)c(O)cc4O)cc3)nc3c2CCN(c2cc(O)cc4ccccc24)C3)CC1	< 6.00
C=CC(=O)N1CCN(c2nc(OCCC(=O)N3CCC(CN4CCN(Cc5ccc(-n6c(O)nnc6-c6cc(C(C)C)c(O)cc6O)cc5)CC4)CC3)nc3c2CCN(c2cc(O)cc4ccccc24)C3)CC1	6.00 to 7.00

Okay, next one:
Task: Can you look up the measured pEC50 of C=CC(=O)N1CCN(c2nc(NCCC(=O)NCCc3ccc(-n4c(O)nnc4-c4cc(C(C)C)c(O)cc4O)cc3)nc3c2CCN(c2cccc4ccccc24)C3)C[C@H]1CC#N for me?
Result: < 6.00

----------
- System: NCI-H358 human non-small cell lung cancer
- protocolText: NCI-H358 CCK-8 proliferation assay
- Format: cell-based
- conditionDetails: NCI-H358 cells, 72 hr
EC50 values for the compounds below.

Task: If you can, please state the reported EC50 value of C=CC(=O)N1CCN(c2nc(NCCC(=O)NCc3ccc(CN4CCC(Cc5ccc(-n6c(C(=O)NCC(F)(F)F)nnc6-c6cc(CC)c(O)cc6O)cc5)CC4)cc3)nc3c2CCN(c2cc(O)cc4ccccc24)C3)CC1 .
Result: 100 to 1000 nM

Task: Next entry: C=CC(=O)N1CCN(c2nc(NCCC(=O)NCc3ccc(-n4c(O)nnc4-c4cc(C(C)C)c(O)cc4O)cc3)nc3c2CCN(c2cc(O)cc4ccccc24)C3)CC1
Result: > 1000 nM
